Test system: mitochondrial respiration
Test: Hepatotoxicity in rat liver mitochondria assessed as inhibition of mitochondrial respiration by measuring mitochondrial respiratory control ratio of oxygen consumption in presence of substrate and ADP to rate after complete conversion of ADP to ATP by Clark-type oxygen electrode method
Type: toxicity
Observed Property: IC50 (µM)
// units = µM; emit number, no label

Observe how each entry below is paired with its result.
N#Cc1cc(C(=O)N2CCc3ccccc32)cc(C2CC2)c1O | 24
O=C(c1cc(Cl)c(O)c(C(F)(F)F)c1)N1CS(=O)(=O)c2ccccc21 | 18
O=C(c1cc(F)c(O)c(Cl)c1)N1CS(=O)(=O)c2ccccc21 | 63

Query block: Consider the molecule CCc1oc2ccccc2c1C(=O)c1cc(Br)c(O)c(Br)c1 [BENZBROMARONE] and give its recorded IC50.
Result block: 3.1

Query block: Consider the molecule `CC(C)(C)c1cc(C(=O)N2CCc3ccccc32)cc(C#N)c1O` and give its recorded IC50.
Result block: 6.6

Query block: Consider the molecule `CSc1cc(C(=O)N2CS(=O)(=O)c3ccccc32)cc(Cl)c1O` and give its recorded IC50.
Result block: 59

---

System: mitochondrial respiration
Experiment: Hepatotoxicity in rat liver mitochondria assessed as inhibition of mitochondrial respiration by measuring mitochondrial respiratory control ratio of oxygen consumption in presence of substrate and ADP to rate after complete conversion of ADP to ATP at 100 uM by Clark-type oxygen electrode method
Assay type: toxicity
# key: entry, value: inhibition at 100 µM
// units = %; emit number, no label

Observe how each entry below is paired with its result.
C#Cc1cc(C(=O)N2CS(=O)(=O)c3ccccc32)cc(C#N)c1O | 13
COc1cc(C(=O)N2CS(=O)(=O)c3ccccc32)cc(C(F)(F)F)c1O | 47
N#Cc1cc(C(=O)N2CS(=O)(=O)c3ccccc32)cc(Cl)c1O | 20

Query block: Consider the molecule `CSc1cc(C(=O)N2CS(=O)(=O)c3ccccc32)cc(C#N)c1O` and give its recorded inhibition at 100 µM.
Result block: 21

---

# key: entry, value: Cmax
Test: Cmax in rat at 3 mg/kg, po by HPLC analysis
Type: ADME, organism-based
Parameters: route oral, dose 3 mg/kg
Settings: in vivo
// units = ng/mL; emit number, no label

Observe how each entry below is paired with its result.
CCc1cc(C(=O)N2CS(=O)(=O)c3ccccc32)cc(C#N)c1O | 4240
O=C(c1cc(Cl)c(O)c(Cl)c1)N1CS(=O)(=O)c2ccccc21 | 9140
C#Cc1cc(C(=O)N2CS(=O)(=O)c3ccccc32)cc(C#N)c1O | 1580

Query block: Consider the molecule `CSc1cc(C(=O)N2CS(=O)(=O)c3ccccc32)cc(Cl)c1O` and give its recorded Cmax.
Result block: 4640

Query block: Consider the molecule `COc1cc(C(=O)N2CS(=O)(=O)c3ccccc32)cc(C(F)(F)F)c1O` and give its recorded Cmax.
Result block: 3990

Query block: Consider the molecule `N#Cc1cc(C(=O)N2CCc3ccccc32)cc(C2CC2)c1O` and give its recorded Cmax.
Result block: 1360

Query block: Consider the molecule `N#Cc1cc(C(=O)N2CCc3ccccc32)cc(I)c1O` and give its recorded Cmax.
Result block: 5950

Query block: Consider the molecule `N#Cc1cc(C(=O)N2CS(=O)(=O)c3ccccc32)cc(Cl)c1O` and give its recorded Cmax.
Result block: 1350

Query block: Consider the molecule `COc1cc(C(=O)N2CS(=O)(=O)c3ccccc32)cc(Cl)c1O` and give its recorded Cmax.
Result block: 1060

Query block: Consider the molecule `N#Cc1cc(C(=O)N2CCc3ccccc32)ccc1O` and give its recorded Cmax.
Result block: 890
